Consider the following compounds; for each one, report its IC10 parent (inhibition of ∆F/Fm′ by 10%).
# Tested on: Symbiodinium sp.
# assay-summary: Microalgal PAM fluorometry assay, inhibition of ∆F/Fm′ (24 h, 96-well plate)
# Type: cell-based
# measurement-context: Symbiodinium sp.; 24 h; pure compound

# map each compound to its IC10 parent (inhibition of ∆F/Fm′ by 10%)
1. CN(C)C(=O)Nc1ccc(Cl)c(Cl)c1
2. CC(C)Nc1nc(N)nc(Cl)n1
3. CCNc1nc(NC(C)C)nc(SC)n1

["0.64 (0.57–0.71) µg l^−1", "103 (93–115) µg l^−1", "0.47 (0.43–0.51) µg l^−1"]

----------
# assay-summary: Herbicide degradation in outdoor tanks with coastal seawater and sediment (330 d)
# Format: physicochemical
# measurement-context: day 330; in tank of the parent herbicide; measured or estimated
readout-kind: Transformation product concentration

Give a short answer stating reported Transformation product concentration for CC(C)Nc1nc(N)nc(Cl)n1 [DEA, desethylatrazine] . 36 µg/L

Entry CCNc1nc(NC(C)C)[nH]c(=O)n1 [Ametryn hydroxy, hydroxy ametryn] needs its Transformation product concentration filled in; supply it. 188 µg/L

Quickly give me recorded Transformation product concentration for CCNc1nc(NC(C)C)[nH]c(=O)n1 [Atrazine hydroxy, hydroxy atrazine] 30 µg/L

Look up Transformation product concentration of CCNc1nc(O)nc(NCC)n1 [Simazine hydroxy, hydroxy simazine] and report it. 45 µg/L

Return Transformation product concentration (reported value) for this compound: CNC(=O)Nc1ccc(Cl)c(Cl)c1 [DCPMU, 3-(3,4-dichlorophenyl)-1-methylurea] 236 µg/L

Identify measured Transformation product concentration corresponding to CCNc1nc(N)nc(Cl)n1 [Desethyl simazine, desethyl simazine] 79 µg/L

Parameters: items (list). Returns: Transformation product concentration for each item.
1. NC(=O)Nc1ccc(Cl)c(Cl)c1 [DCPU, 3,4-dichlorophenylurea]
2. CCNc1nc(N)nc(SC)n1 [Ametryn desisopropyl, ametryn desisopropyl]
3. CSc1nc(N)nc(NC(C)C)n1 [Ametryn desethyl, ametryn desethyl]
4. CNc1nc(=O)n(C2CCCCC2)c(=O)n1C [Hexazinone desmethyl, hexazinone desmethyl]
5. Nc1ccc(Cl)c(Cl)c1 [3,4-DCA, 3,4-dichloroaniline]

85 µg/L
BDL
23 µg/L
91 µg/L
2.1 µg/L

----------
# Tested on: prawn (Penaeus monodon) larvae
# assay-summary: Prawn larvae assay, metamorphosis of nauplii into protozoea (24 h static)
# Type: in vivo
# measurement-context: 24 h; vs solvent control, ANOVA p < 0.05; aged solutions as concentration of parent herbicide
# Protocol: The giant tiger prawn (Penaeus monodon) can be found throughout the tropical Indo-Pacific region and can be obtained from aquaculture facilities and has a well-described life cycle. The aim of the larval prawn assay was to determine whether the herbicides and transformation products inhibit early naupliar development. Prawn eggs hatch into their first larval stage (nauplii), typically 12–15 h after spawning. […]
readout-kind: NOEC, prawn larval metamorphosis
Record the result as number plus unit.

Return reported NOEC, prawn larval metamorphosis values for all items listed beneath this line.
1. CN(C)C(=O)Nc1ccc(Cl)c(Cl)c1
2. CN(C)c1nc(=O)n(C2CCCCC2)c(=O)n1C
3. CCNc1nc(Cl)nc(NC(C)C)n1
4. [Cl][Cu][Cl] [Copper reference, copper II chloride, reference compound]
5. Nc1ccc(Cl)c(Cl)c1
6. CCNc1nc(NC(C)C)nc(SC)n1

1. 874 µg/L
2. 242 µg/L
3. 197 µg/L
4. 11 µg/L
5. 54 µg/L
6. 517 µg/L

----------
Provide the reported Parent herbicide concentration of each item.
# assay-summary: Herbicide degradation in outdoor tanks with coastal seawater and sediment (330 d)
# Assay type: physicochemical
# measurement-context: day 330; seawater with sediment, outdoor tanks
Numbers only, in µg/L.

Use the examples below as a reference point.
Complete the entry with Parent herbicide concentration for `CN(C)c1nc(=O)n(C2CCCCC2)c(=O)n1C` 366

Specify reported Parent herbicide concentration for the compound shown: `CCNc1nc(Cl)nc(NCC)n1` 384

Hello, please tell me recorded Parent herbicide concentration for this one: `CCNc1nc(Cl)nc(NC(C)C)n1` 278

For `CN(C)C(=O)Nc1ccc(Cl)c(Cl)c1` , write its Parent herbicide concentration. 71

// moving on: another record for Parent herbicide concentration
Specify measured Parent herbicide concentration for `CCNc1nc(NC(C)C)nc(SC)n1` . 189

----------
# Tested on: prawn (Penaeus monodon) larvae
# assay-summary: Prawn larvae assay, metamorphosis of nauplii into protozoea (24 h static)
# Assay type: in vivo
# measurement-context: 24 h; vs solvent control, ANOVA p < 0.05; aged solutions as concentration of parent herbicide
# Description: The giant tiger prawn (Penaeus monodon) can be found throughout the tropical Indo-Pacific region and can be obtained from aquaculture facilities and has a well-described life cycle. The aim of the larval prawn assay was to determine whether the herbicides and transformation products inhibit early naupliar development. Prawn eggs hatch into their first larval stage (nauplii), typically 12–15 h after spawning. […]
readout-kind: LOEC, prawn larval metamorphosis

A selection of reference data follows.
Please report the measured LOEC, prawn larval metamorphosis for `CN(C)c1nc(=O)n(C2CCCCC2)c(=O)n1C` 1026 µg/L

Answer with reported LOEC, prawn larval metamorphosis of `CCNc1nc(NC(C)C)nc(SC)n1` >517 µg/L

Please supply the value of reported LOEC, prawn larval metamorphosis for the item `CCNc1nc(Cl)nc(NC(C)C)n1` 899 µg/L

Assign LOEC, prawn larval metamorphosis to the following record: [Cl][Cu][Cl] [Copper reference, copper II chloride, reference compound] 91 µg/L

Please go through the list and note LOEC, prawn larval metamorphosis for each molecule.
1. CN(C)C(=O)Nc1ccc(Cl)c(Cl)c1
2. Nc1ccc(Cl)c(Cl)c1

1. >874 µg/L
2. 188 µg/L

----------
# Tested on: Symbiodinium sp.
# assay-summary: Microalgal PAM fluorometry assay, inhibition of ∆F/Fm′ (24 h, 96-well plate)
# Assay type: cell-based
# measurement-context: Symbiodinium sp.; 24 h; pure compound
# From the text: Microalgae play a critical role in the marine food web and have been used in a number of sensitive assays for the assessment of toxicity of both herbicides and their transformation products[13],[16],[60]. High throughput 96 well plate designs allow for increased replication and a wide range of concentrations especially when paired with pulse amplitude modulation (PAM) fluorometry[50],[61]. […]
readout-kind: IC10 parent (inhibition of ∆F/Fm′ by 10%)

Below are some compounds; for each one, tell me its IC10 parent (inhibition of ∆F/Fm′ by 10%).
1. CCNc1nc(Cl)nc(NC(C)C)n1
2. CN(C)c1nc(=O)n(C2CCCCC2)c(=O)n1C
3. CCNc1nc(Cl)nc(NCC)n1

["8.6 (8.0–9.3) µg l^−1", "5.3 (4.5–6.7) µg l^−1", "21 (19–23) µg l^−1"]
